meta.source: patent US20140315986

# System name: IL-6 (mature human interleukin-6) (Homo sapiens)
# Assay method text: filter
# Test conditions: G-G-C1-A-G-G1-MBn-Bn-Pe-G-G-Nap-C3-G-Bn-G-G (1=2'-OMe, C3=spacer); 100-fold improvement over parent stated
pKd: −log10 of the molar value.
Quantity: pKd

>  <Entry sequence>
GGCAGGUUUGGUGUGG [2573-20_324 Bn7 to MBn variant]

>  <System name>
IL-6 (mature human interleukin-6) (Homo sapiens)

>  <Quantity>
pKd

>  <Value>
9.00

$$$$

###

# System name: IL-6 (mature human interleukin-6) (Homo sapiens) (UniProt P05231)
# Sequence (P05231 29-212): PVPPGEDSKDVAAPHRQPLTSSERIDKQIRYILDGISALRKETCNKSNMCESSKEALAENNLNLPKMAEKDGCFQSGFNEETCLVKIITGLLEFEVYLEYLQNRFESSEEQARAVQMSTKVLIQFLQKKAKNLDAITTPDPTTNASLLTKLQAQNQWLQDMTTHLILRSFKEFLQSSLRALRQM
# Assay method text: cell_activity
# Test conditions: all U are Bn-dU; 2'-OMe at C3,G6,A16,A19,C20,C28; STAT3 gene reporter assay
pIC50: −log10 of the molar value.

>  <Entry sequence>
GGCAGGUUUGGUAUUAACACGUUAAGUCGUGG [2573-20_135]

>  <pIC50>
9.62

$$$$
